Test system: L02
Experiment: Cytotoxicity against human LO2 cells assessed as reduction in cell growth at 5 to 10 uM after 24 hrs by MTT assay
Format: cell-based
Details: l02, 24 h
measure.name: Activity

| smiles.str | Activity |
| --- | --- |
| Cc1ccc(-c2nnc(-c3c[nH]c4ncc(-c5ccc(S(C)(=O)=O)cc5)cc4c3=O)o2)cc1 | Non-Toxic |
| CS(=O)(=O)c1ccc(-c2cnc3[nH]cc(-c4nnc(-c5ccccn5)o4)c(=O)c3c2)cc1 | Non-Toxic |
| O=c1c(-c2nnc(-c3ccc(Cl)cc3)o2)c[nH]c2ncc(-c3cccnc3)cc12 | Non-Toxic |
| O=c1c(-c2nnc(-c3ccc(Cl)cc3)o2)c[nH]c2ncc(-c3ccccc3)cc12 | Non-Toxic |

Proceeding to the next compound to report its Activity.
Query block: I'd like to know its Activity. The compound in question is CS(=O)(=O)c1ccc(-c2cnc3[nH]cc(-c4nnc(-c5cccnc5)o4)c(=O)c3c2)cc1
Result block: Non-Toxic

Data provenance: ChEMBL document CHEMBL4368880
